experimental.endpoint: melting point

compound | melting point
O=C(NCCCCCNc1c([N+](=O)[O-])cnc2ccccc12)c1ccccc1 | 130 to 132 °C
CCOP(=O)(OCC)OC(=Cc1nccn1C)C(F)(F)F | 54 to 64 °C
CCCCCCCCCCCC1CC(O)C(CCCCCC)C(=O)O1 (stereo not given) | 98 to 99 °C
CC1(C)CC(C2=NN(CC#N)C(=O)N(/N=C/c3cncc(F)c3)C2)=NO1 | 195 to 197 °C

Now consider a different compound.
Input `Cc1cccc(OCC2=NCCN2C(=O)Nc2ccccc2)c1C` . Output melting point: 150 to 152 °C

====

Item-by-item account of melting point

Some compounds with known melting point results, for comparison:
compound | melting point
CCC(CCC(=C(C#N)C(N)=O)c1cc(O)c(O)c(O)c1)NC(=O)C(C#N)=Cc1cc(O)c(O)c(O)c1 (stereo unspecified) | > 300 °C
CSc1c(C#N)cnn1-c1ccc(C(F)(F)F)cc1Cl | 59 to 62 °C
Cc1ccc(C(O)CN2CCNC2=S)cc1 (stereo unspecified) | 123 °C
COCCc1nc2c(N)nc3cc(OCc4ccccc4)ccc3c2n1CCCCNC(N)=O | 170 to 171 °C
CNc1cc(F)ccc1C(C)=O | 52 to 53 °C
COC(=O)C1Oc2ccccc2Cc2ccc(OC)cc2O1 (stereo unspecified) | 93 to 95 °C
Cc1c(Sc2ccc(Cl)cc2)nn(-c2ccc(Oc3ccccc3)cc2)c(=O)c1C#N | 164 °C
COC(=O)c1ccccc1S(=O)(=O)NC(=O)Nc1nc(OC)nc(C2CC2)n1 | 166 to 168 °C
COc1nc(C)c(C)cc1NC(=S)N1CCN(c2cc(F)cc(F)c2)CC1 | 60 to 62 °C
COC1Nc2c(OC(C)=O)cccc2C(=O)N2CCCC12 (stereo unspecified) | 147 to 150 °C

Input `COc1c(CC(=O)O)cccc1CC(=O)O` . Output melting point: 184 to 186 °C

Input `CC(=O)OCCc1cc2c(s1)SCCc1cc(=O)n(-c3ccc(Cl)cc3)nc1-2` . Output melting point: 115 to 117 °C

Input `CC(=NOCCO)c1ccc(-c2ccccc2)nc1` . Output melting point: 76 °C

Input `C=C(COCC(=C)C(=O)O)C(=O)O` . Output melting point: 177 °C

Input `COC1=C(OC)C(=O)c2c(Cl)cccc2C1=O` . Output melting point: 120 to 121 °C

Input CN1CCCCC(c2cccc(O)c2)C1=O (stereo unspecified) . Output melting point: 188 to 191 °C

Input O=C(NC1CCNC1=O)c1cccc(-c2cccc3oc(Cc4cccc(C(F)(F)F)c4)cc23)c1 (stereo unspecified) . Output melting point: 110 to 120 °C

Input `Cc1onc(-c2ccccc2)c1C(=O)NCCCN1CCN(c2ccccc2OCC(F)(F)F)CC1` . Output melting point: 124 to 125 °C

Input `CC(C)(C)Oc1ccc(C(=O)N[C@H]2CC[C@H](CCN3CCC(c4cccc5c4CCO5)CC3)CC2)cc1` . Output melting point: 216 °C

Input `Cc1cc(OS(=O)(=O)c2c(Cl)cccc2Cl)cc2c(C3CCN(C)CC3)c[nH]c12` . Output melting point: 179 °C

Input CN(Cc1cc[nH]n1)C1CCCN(C(=O)c2ccc(Nc3nccc(Nc4ccc(F)cc4)n3)cc2)C1 (stereo unspecified) . Output melting point: 120 to 140 °C

====

experimental.endpoint: melting point

Some molecules with known melting point results, for comparison:
molecule | experimental.endpoint | recorded.measurement
Cc1ccc(C(=O)N2CCc3nnc(NN=C4CCCCC4)cc3C2)cc1 | melting point | 208 to 210 °C
CNC(=O)Oc1ccccc1C(=O)NC(Oc1ccccc1)C(Cl)(Cl)Cl (stereo not given) | melting point | 138 to 141 °C
CCOC(=O)c1sc(SC)c2c1CCc1sc(-c3ccccc3)nc1-2 | melting point | 153 to 154 °C

Input `CCOCc1nc2c(N)nc3ccc(O)cc3c2n1CCCCNC(=O)Nc1ccccc1` . Output melting point: 218 to 221 °C

Input `CCCCc1ncc(CSc2ncccc2C(=O)O)n1Cc1ccc(C(=O)O)cc1` . Output melting point: 155 to 157 °C

====

Item-by-item account of melting point

Some molecules with known melting point results, for comparison:
molecule | melting point
Cc1nccn1CCCNC(=O)c1cccnc1Cl | 126 to 128 °C
CCCN(CCC)C(=O)Cc1ccc(O)c([N+](=O)[O-])c1 | 55 to 57 °C
c1cc(-c2ccc3nncn3n2)cs1 | 189 to 192 °C
Cc1ccc(CCC(N)CC(=O)O)cc1 (stereo unspecified) | 206 to 207 °C

Input `O=S1(=O)c2cccc3cccc(c23)N1CCN1CCC(CC2Cc3ccccc3C2)CC1` . Output melting point: 126 °C

Input `CSC(Cc1cnn(-c2c(Cl)cc(C(F)(F)F)cc2Cl)n1)SC` . Output melting point: 97 to 98 °C

Input `COc1cccc(-c2cc(Cl)c3cc(OC)ccc3n2)c1` . Output melting point: 106 to 107 °C

Input `CCOC(=O)c1ccc(N2CCN(C(=O)C=Cc3cc(C(C)(C)C)c(O)c(C(C)(C)C)c3)CC2)cc1` . Output melting point: 147 to 150 °C

Input `Nc1cc(-n2nc3ccc(Cl)cn3c2=O)c(F)cc1Cl` . Output melting point: 247 to 250 °C

Input `COc1ccc2c(CCBr)c[nH]c2c1` . Output melting point: 98 to 101 °C

Input `Cn1ccnc1Sc1cccc(-c2nc(=O)c3ccccc3s2)n1` . Output melting point: 172 °C

====

Item-by-item account of melting point

molecule | melting point
COc1cc(N=C2SC(=CC(=O)O)C(=O)N2c2cc(OC)c(OC)c(OC)c2)cc(OC)c1OC | 250 to 252 °C
CCC12CCC3C4CCC(=O)C=C4CCC3C1CCC2OC(=O)CCc1ccccc1 (stereo not given) | 135 to 140 °C
Cc1ccsc1C(Cc1ccccc1N)N(C)C (stereo not given) | 75 to 77 °C
CC(=O)c1ccc(-c2ccc(F)cc2F)c(F)c1 | 92 to 94 °C
CCCCCCCCCCCCCC(=O)c1c(O)cc(C)c(O)c1CCC | 62 °C
Cc1ccccc1CC(=NC#N)NC(NC(=O)Cc1ccc2ncccc2c1)C(C)(C)C (stereo not given) | 172 to 173 °C
C[C@]12CC[C@@H]3C4=C(CC[C@H]3[C@@H]1CCC21CC(O)CO1)CC(=O)CC4 (stereo not given in full) | 118 to 123 °C
O=C(O)COc1ccc(C(=O)Nc2ccccc2Sc2ccccc2-c2nnn[nH]2)cc1 | 252 to 253 °C

Input `Fc1ccc(/C=C/C2=CCN(Cc3c[nH]c4ncccc34)CC2)cc1` . Output melting point: 211 to 213 °C

Input `COC(=O)c1cc(Cl)c(Cl)c(-c2cc(C)no2)c1C` . Output melting point: 76 to 77 °C

Input `CC=Cc1cccc2c(=O)c(C)c(-c3ccc(C(C)C)cc3)oc12` . Output melting point: 105 to 107 °C

Input O=c1ccn(C2C=CC(CO)O2)c(=O)[nH]1 (stereo not given) . Output melting point: 150 to 151 °C

Input `BrCCC1c2ccccc2-c2ccccc21` . Output melting point: 48 to 49 °C

Input `O=C(Nc1cnc2cc[nH]c2c1)c1cc2cc(F)ccc2n1Cc1cccc(F)c1` . Output melting point: 277 to 278 °C

Input `Cc1ccccc1-c1ccc(C(=O)N2Cc3ccc(C(=O)CCc4cccnc4)n3Cc3ccccc32)cc1` . Output melting point: 135 to 136 °C

Input `CNc1nc(C)c(-c2nc3ccccc3c(=O)n2-c2ccc(C(C)=O)cc2)s1` . Output melting point: 245 to 246 °C

Input `CNc1nc(-c2cccc(NC(=S)c3ccc(C)cc3)c2)c2cc(OC)c(OC)cc2n1` . Output melting point: 209 to 211 °C

====

Item-by-item account of melting point

compound | recorded.measurement
CCCCOc1cc2c(nc(O)n2Cc2ccccc2)c(N)n1 | 205 to 208 °C
Cc1cc(C(C)(C)C)c(O)c(C)c1COC(=O)CCCCC(=O)OCc1c(C)cc(C(C)(C)C)c(O)c1C | 156 to 158 °C
CC(C)(C)OC(=O)N[C@H](CNC(=O)Nc1ccccc1)Cc1ccccc1 | 154 °C
CN(C(=O)c1ccc(Cn2cnc3ncnc-3c2)cc1)C1CCCCC1 | 229 to 230 °C
COCCN(C)Cc1c(-c2ccc(NC(=O)NOC)cc2)sc2c1c(=O)n(-c1ccccc1)c(=O)n2Cc1c(F)cccc1F | 161 to 163 °C

Input `CC(C)OC(=O)c1nc(Cl)c(Cl)[nH]1` . Output melting point: 168 °C

Input `O=C(O)COc1cccc2c1CCc1sc(S(=O)(=O)CC=Cc3ccccc3)nc1-2` . Output melting point: 210 to 214 °C

Input `CC(C)c1ccc(C(=O)Nc2cn3cc(-n4ccnc4)ccc3n2)cc1` . Output melting point: 291 to 293 °C

Input CN(Cc1cccc2c1CN(C1CCC(=O)NC1=O)C2=O)C(=O)Nc1ccccc1 (centres undefined) . Output melting point: 186 to 188 °C

From: a melting point compilation (Tetko et al.; mined from patent text by program, amines drawn as free bases though some values may be those of a salt)
